- Test system: Bacillus subtilis
- MEASUREMENT DESCRIPTION: Antibacterial activity against Bacillus subtilis MTCC 441 after 24 hr by broth microdilution method
- Assay type: functional
- TEST SETTINGS: MTCC 441, 24 h
EXPERIMENTAL ENDPOINT: MIC
Returns: string containing the number followed by the unit.

>  <COMPOUND>
CC1(C)CC(=O)C2=C(C1)N(c1ccc(F)cc1)C(=O)CC2c1cn(-c2ccccc2)nc1-c1ccccc1 (centres undefined)

>  <EXPERIMENTAL TARGET>
Bacillus subtilis

>  <MIC>
0.2 µg/mL

$$$$
>  <COMPOUND>
Cc1ccc(-c2nn(-c3ccccc3)cc2C2CC(=O)N(c3ccc(F)cc3)C3=C2C(=O)CCC3)cc1 (centres undefined)

>  <EXPERIMENTAL TARGET>
Bacillus subtilis

>  <MIC>
0.25 µg/mL

$$$$
>  <COMPOUND>
COc1ccc(-c2nn(-c3ccccc3)cc2C2CC(=O)N(c3ccc(F)cc3)C3=C2C(=O)CCC3)cc1 (centres undefined)

>  <EXPERIMENTAL TARGET>
Bacillus subtilis

>  <MIC>
0.5 µg/mL

$$$$

Request: Query the reported MIC for Bacillus subtilis; item: Cc1ccc(-c2nn(-c3ccccc3)cc2C2CC(=O)N(c3ccc(F)cc3)C3=C2C(=O)CC(C)(C)C3)cc1 (centres undefined)
Response: 0.5 µg/mL
